assay-target: KRAS WT (Homo sapiens (Human), UniProt P01116+P62937)
Sequence (P01116-2 other isoform, or with tags, fused parts or gaps): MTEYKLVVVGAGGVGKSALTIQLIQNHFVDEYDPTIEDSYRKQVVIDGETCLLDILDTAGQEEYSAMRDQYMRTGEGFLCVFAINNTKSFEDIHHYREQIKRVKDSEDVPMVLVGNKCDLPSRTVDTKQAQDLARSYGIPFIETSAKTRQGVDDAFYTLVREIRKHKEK
Sequence (P62937 whole entry): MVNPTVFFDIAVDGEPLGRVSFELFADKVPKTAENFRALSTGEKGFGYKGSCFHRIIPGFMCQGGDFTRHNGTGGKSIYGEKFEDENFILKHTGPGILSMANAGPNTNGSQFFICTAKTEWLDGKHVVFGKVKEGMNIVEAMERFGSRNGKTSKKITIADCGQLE
measurement-protocol: Ras-Raf (BRAF RBD) disruption / FRET / MOA assay, KRAS WT
Type: biochemical
measurement-conditions: read-out: IC50* KRAS WT FRET data
pIC50: −log10 of the molar value.
reported-property: pIC50

molecule="CCn1c(-c2cccnc2[C@H](C)OC)c2c3cc(ccc31)-c1csc(n1)C[C@H](NC(=O)[C@H](C(C)C)N(C)C(=O)N1CCC13CN(C(=O)/C=C/CN(C)C)C3)C(=O)N1CCC[C@H](N1)C(=O)OCC(C)(C)C2 (atropisomer, axis not shown)" reported_property=pIC50 result="7.00 to 8.00"
molecule="CCn1c(-c2cccnc2[C@H](C)OC)c2c3cc(ccc31)N1CCC[C@@H](C[C@H](NC(=O)[C@H](C(C)C)N(C)C(=O)C3(F)CCN(C(=O)C#CC(C)(C)N(C)C)CC3)C(=O)N3CCC[C@H](N3)C(=O)OCC(C)(C)C2)C1 (atropisomer, axis not shown) [Example A616]" reported_property=pIC50 result="5.00 to 6.00"
molecule="CC#CC(=O)N1CC[C@]2(CCN([C@H](C(=O)N[C@H]3Cc4cccc(c4)-c4ccc5c(c4)c(c(-c4cccnc4[C@H](C)OC)n5CC)CC(C)(C)COC(=O)[C@@H]4CCCN(N4)C3=O)C(C)C)C2=O)C1 (atropisomer, axis not shown)" reported_property=pIC50 result="5.00 to 6.00"
molecule="C=CC(=O)N1CC[C@@]2(CCN(C(=O)N(C)[C@H](C(=O)N[C@H]3Cc4nc(cs4)-c4ccc5c(c4)c(c(-c4cccnc4[C@H](C)OC)n5CC)CC(C)(C)COC(=O)[C@@H]4CCCN(N4)C3=O)C(C)C)C2)C1 (atropisomer, axis not shown)" reported_property=pIC50 result="7.00 to 8.00"
molecule=C=CC(=O)N1CC[C@H](C(=O)N(C)[C@H](C(=O)N[C@H]2Cc3cc(O)cc(c3)-c3ccc4c(c3)c(c(-c3ccc(N5CCN(C)CC5)nc3)n4CC)CC(C)(C)COC(=O)[C@@H]3CCCN(N3)C2=O)C(C)C)C1 reported_property=pIC50 result="5.00 to 6.00"
molecule="C=CC(=O)N1CC(OCC(C(=O)N[C@H]2Cc3nc(cs3)-c3ccc4c(c3)c(c(-c3cccnc3[C@H](C)OC)n4CC)CC(C)(C)COC(=O)[C@@H]3CCCN(N3)C2=O)C(C)C)C1 (mixture of isomers)" reported_property=pIC50 result="5.00 to 6.00"
molecule="C=CC(=O)NCCN(C)C(=O)N(C)[C@H](C(=O)N[C@H]1Cc2nc(cs2)-c2ccc3c(c2)c(c(-c2cccnc2[C@H](C)OC)n3CC)CC(C)(C)COC(=O)[C@@H]2CCCN(N2)C1=O)C(C)C (atropisomer, axis not shown)" reported_property=pIC50 result="6.00 to 7.00"
molecule="C=CC(=O)N1CC2(CCN2C(=O)N(C)[C@H](C(=O)N[C@H]2Cc3cccc(n3)-c3ccc4c(c3)c(c(-c3cccnc3[C@H](C)OC)n4CC)CC(C)(C)COC(=O)[C@@H]3CCCN(N3)C2=O)C(C)C)C1 (atropisomer, axis not shown)" reported_property=pIC50 result="6.00 to 7.00"
